B1: EEHEE_rd3_0130 (parent)
chain: TKIIVNGKTFTAPTEEEAQKIAEKLAKKAGLTVHKKNGTFELK

Variants of: B1
Experiment: folding stability dG (cDNA display proteolysis); higher = more stable
Settings: PBS, room temperature
Readings of folding stability dG for the listed variants
Assay endpoint: folding stability dG

[[record]]
variant_string = "F10L"
result = "0.392 kcal/mol"

[[record]]
variant_string = "N6L"
result = "0.861 kcal/mol"

[[record]]
variant_string = "K43A"
result = "0.626 kcal/mol"

[[record]]
variant_string = "A18Q"
result = "-0.715 kcal/mol"

[[record]]
variant_string = "T32C"
result = "1.05 kcal/mol"

[[record]]
variant_string = "A26G"
result = "0.163 kcal/mol"

[[record]]
variant_string = "N37H"
result = "-0.068 kcal/mol"

[[record]]
variant_string = "I3L"
result = "-0.098 kcal/mol"

[[record]]
variant_string = "K43C"
result = "1.76 kcal/mol"

[[record]]
variant_string = "E16S"
result = "0.797 kcal/mol"

[[record]]
variant_string = "K2A"
result = "0.458 kcal/mol"

[[record]]
variant_string = "K35M"
result = "0.631 kcal/mol"

[[record]]
variant_string = "L42I"
result = "0.782 kcal/mol"

[[record]]
variant_string = "L25Q"
result = "-0.482 kcal/mol"

[[record]]
variant_string = "A29F"
result = "2.88 kcal/mol"

[[record]]
variant_string = "I4M"
result = "0.561 kcal/mol"

